Below, each entry is listed with its recorded self-cleavage.
B1: HDV Ribozyme (parent)
chain: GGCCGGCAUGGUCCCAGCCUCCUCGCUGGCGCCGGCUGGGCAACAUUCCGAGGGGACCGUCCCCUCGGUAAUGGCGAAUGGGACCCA

variants of: B1; experiment: self-cleavage, relative activity (ratio to wild type); higher = more cleavage; co-transcriptional

| variantIdentifier | assayEndpoint | observedResult |
| --- | --- | --- |
| G11C U69C | self-cleavage | 0.317 |
| G34C U65G | self-cleavage | 0.208 |
| C30U U47C | self-cleavage | 0.401 |
| C22U C86G | self-cleavage | 0.692 |
| G34A U47A | self-cleavage | 0.0997 |

## Input Record request: self-cleavage value, item C14G U60C
## Output 0.443

## Input Record request: self-cleavage value, item G31A G81U
## Output 0.126

## Input Record request: self-cleavage value, item A51C C84A
## Output 0.675

## Input Record request: self-cleavage value, item A51G G55U
## Output 1.06

## Input Record request: self-cleavage value, item C4A G6A
## Output 0.0573

All values here come from the RNAGym collection of RNA variant scans (doi:10.7554/elife.80360).
